Origin of measurements: ChEMBL document CHEMBL3991601

experimental-system: Serine/threonine-protein kinase PAK 4 (Homo sapiens, UniProt O96013); further: in the data inactive means no Kd found up to 30 µM
Sequence (O96013 whole entry): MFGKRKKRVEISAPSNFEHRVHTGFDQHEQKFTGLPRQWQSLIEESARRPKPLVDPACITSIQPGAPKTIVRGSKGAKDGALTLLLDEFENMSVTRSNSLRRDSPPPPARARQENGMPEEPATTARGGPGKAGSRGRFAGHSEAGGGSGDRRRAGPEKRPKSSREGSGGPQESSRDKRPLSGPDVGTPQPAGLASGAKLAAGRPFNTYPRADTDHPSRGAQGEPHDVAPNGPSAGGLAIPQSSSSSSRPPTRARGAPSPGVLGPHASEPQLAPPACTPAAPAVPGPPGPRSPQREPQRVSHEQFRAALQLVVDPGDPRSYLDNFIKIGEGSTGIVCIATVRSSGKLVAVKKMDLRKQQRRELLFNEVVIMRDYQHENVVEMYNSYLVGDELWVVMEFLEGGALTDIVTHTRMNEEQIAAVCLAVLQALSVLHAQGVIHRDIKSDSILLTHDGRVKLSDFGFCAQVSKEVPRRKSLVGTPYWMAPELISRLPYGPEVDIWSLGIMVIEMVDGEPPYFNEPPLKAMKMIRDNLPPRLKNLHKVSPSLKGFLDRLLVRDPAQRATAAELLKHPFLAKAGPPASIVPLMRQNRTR
Where a name gives a salt, the structure may show the parent alone. Calls of active or inactive are those of the source.
Pick one and only one: active, inactive

> print(dat)
                                   compound                       experimental.system  class.assignment
1  COc1cc([C@@H]2c3cc4c(cc3[C@H](O)[C@H]3COC(=O)[C@@H]23)OCO4)cc(OC)c1OC  Serine/threonine-protein kinase PAK 4 (Homo sapiens, UniProt O96013)          inactive
2  Cc1cccc(-c2nn3c(c2-c2ccnc4ccc(C(N)=O)cc24)CCC3)n1  Serine/threonine-protein kinase PAK 4 (Homo sapiens, UniProt O96013)          inactive
3  CNC(=O)c1nn(C)c2c1C(C)(C)Cc1cnc(Nc3ccc(N4CCN(C)CC4)cc3)nc1-2  Serine/threonine-protein kinase PAK 4 (Homo sapiens, UniProt O96013)          inactive
4  C=CC(=O)Nc1cc2c(Nc3ccc(F)c(Cl)c3)ncnc2cc1C#CC(C)(C)N1CCN(C)CC1 [AV-412 FREE BASE]  Serine/threonine-protein kinase PAK 4 (Homo sapiens, UniProt O96013)          inactive
5  CCS(=O)(=O)N1CCN(c2ccc(Nc3ncc(C(N)=O)c(NC4CC4)n3)cc2)CC1 [Cerdulatinib Hydrochloride]  Serine/threonine-protein kinase PAK 4 (Homo sapiens, UniProt O96013)            active
6  NC1(c2ccc(-c3nc4ccn5c(=O)[nH]nc5c4cc3-c3ccccc3)cc2)CCC1  Serine/threonine-protein kinase PAK 4 (Homo sapiens, UniProt O96013)          inactive
7  C[C@@H](Oc1cc(C(=O)Nc2ccc(C(=O)N3CCN(C)CC3)cc2)nnc1N)c1c(Cl)ccc(F)c1Cl  Serine/threonine-protein kinase PAK 4 (Homo sapiens, UniProt O96013)          inactive

Would you kindly look at the next entry?
Task item: Can you look up the reported call for COc1cc2ncnc(Oc3cccc(NC(=O)Nc4cc(C(C)(C)C(F)(F)F)on4)c3)c2cc1OC for me?
Reply: inactive
